Numbers sourced from PubChem BioAssay AID1159580.

Listed next: entries and their corresponding normalized growth.
- Assay notes: chemical genetic growth profiling, strain panel (AID 1159580);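 further: tested at 20 µM; growth read once vehicle control cultures reached saturation at 30 °C; 1 = growth at the plate median or of vehicle wells; lower values mean less growth of the strain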
- Experimental setup: S. cerevisiae deletion strains, growth OD, locus YDR335W, strain msn5, hits give low values
In all, about 5,500 compounds went through this assay and about 2,000 (36%) were called active. Another 18% or so got no clear call; they are omitted. The list shows a part of the results.
Property label: normalized growth

Compound	Property label	Experimental value
CC(=O)O[C@@H]1CC2C(C)(C)[C@H](O)CC[C@]2(C)C2CC[C@@]3(C)[C@H](c4ccoc4)OC(=O)C4OC43[C@@]21C (some centres not stated)	normalized growth	1.03 (inactive)
CCN1C[C@@]2(COC)C3[C@@H](OC)[C@H]4[C@@H]1[C@]3(C(OC)C[C@H]2O)C1C[C@@]2(O)[C@H](OC(=O)c3ccccc3)C1[C@]4(OC(C)=O)[C@@H](O)[C@@H]2OC (some centres not stated)	normalized growth	1.01 (inactive)
CN(C)CCC(c1ccccc1)c1ccccn1 (configuration not stated)	normalized growth	1.01 (inactive)
CC(=O)O[C@H]1C[C@@H](OC(C)=O)C(C)(C)C2C[C@@H](O)[C@]3(C)C(CC[C@@]4(C)[C@H](c5ccoc5)OC(=O)[C@H]5O[C@]543)[C@]21C (some centres not stated)	normalized growth	0.99 (inactive)
COc1c(C)c2c(c(O)c1C/C=C(\C)CCC(=O)O)C(=O)OC2	normalized growth	0.549 (active)
CN(C)C(=O)Oc1ccc[n+](C)c1	normalized growth	0.996 (inactive)
CC(=O)O[C@H]1C[C@@H](OC(C)=O)C(C)(C)C2C[C@@H](OC(C)=O)[C@]3(C)C(CC[C@@]4(C)[C@H](c5ccoc5)OC(=O)[C@H]5O[C@]543)[C@]21C (some centres not stated)	normalized growth	0.993 (inactive)
